Test system: glucuronidation of CVA (UDPGA-dependent)
Assay: in vitro
Conditions: human, liver microsomes, pH 7, probe CVA (10-20 μM), IC50, CVA Glucuronidation, statin 10-20 μM, UDPGA
From the text: The term “glucuronidation inhibition assay” as used herein refers to the following assay when performed with human liver microsomes. The effects of inhibitors on metabolism of the statins were expressed as percentages of metabolites (statin glucuronides and lactones) formed in the presence of inhibitors relative to the corresponding values obtained in the absence of inhibitors (control) on the same day. […]
outcome-measure: pIC50
One number for each entry, as −log10 of the molar value.

Returns the measured pIC50 for the input compound. Input: Cc1ccc(C)c(OCCCC(C)(C)C(=O)O)c1
4.09

----------
System: oxidative metabolism of SVA (NADPH-dependent)
Assay: in vitro
Conditions: human, pH 7.4
outcome-measure: inhibition at 1 µM

Returns the measured inhibition at 1 µM for the input compound. Input: CC(=O)N1CCN(c2ccc(OCC3COC(Cn4ccnc4)(c4ccc(Cl)cc4Cl)O3)cc2)CC1 (stereo not shown)
> 85%

----------
System: oxidative metabolism of simvastatin acid (NADPH-dependent)
Assay: Inhibition of simvastatin acid oxidation in dog liver microsomes
Type: in vitro ADME
Conditions: pH 7.4, probe simvastatin acid (10-20 μM)
outcome-measure: IC50

Returns the measured IC50 for the input compound. Input: Cc1ccc(C)c(OCCCC(C)(C)C(=O)O)c1 [Gemfibrozil, gemfibrozil]
~1000 µM

----------
System: oxidation of CVA (both oxidative metabolites)
Test: in vitro
Settings: human, pH 7.4
outcome-measure: inhibition at 1 µM

Returns the measured inhibition at 1 µM for the input compound. Input: CC(=O)N1CCN(c2ccc(OCC3COC(Cn4ccnc4)(c4ccc(Cl)cc4Cl)O3)cc2)CC1 (stereo not shown)
≤ 50%

----------
Test system: glucuronidation of AVA (UDPGA-dependent)
Assay: in vitro
Conditions: human, liver microsomes, pH 7, probe AVA (10-20 μM), IC50, AVA Glucuronidation, statin 10-20 μM, UDPGA
outcome-measure: pIC50
One number for each entry, as −log10 of the molar value.

Returns the measured pIC50 for the input molecule. Input: Cc1ccc(C)c(OCCCC(C)(C)C(=O)O)c1 [Gemfibrozil, gemfibrozil]
3.50

----------
Test system: oxidation of CVA to metabolite M2
Experiment: in vitro
Conditions: human, pH 7.4
outcome-measure: inhibition at 1 µM

Returns the measured inhibition at 1 µM for the input compound. Input: CC(=O)N1CCN(c2ccc(OCC3COC(Cn4ccnc4)(c4ccc(Cl)cc4Cl)O3)cc2)CC1 (stereo not shown)
~50%

----------
Assay: Pharmacokinetics after oral simvastatin in dogs pretreated with vehicle, gemfibrozil or fenofibrate
Settings: dog, in vivo, Cmax of fenofibric acid, fenofibrate treated
outcome-measure: Cmax (µM)
Numbers only, in µM.

Returns the measured Cmax for the input compound. Input: CC(C)(Oc1ccc(C(=O)c2ccc(Cl)cc2)cc1)C(=O)O [Fenofibric acid, fenofibric acid]
77

----------
Tested on: glucuronidation of simvastatin acid (UDPGA-dependent)
Experiment: Inhibition of simvastatin acid glucuronidation in dog liver microsomes
Type: in vitro ADME
Settings: pH 7, probe simvastatin acid (10-20 μM)
Assignment: determine reported IC50 for the given compounds.
One number for each entry, in µM.

1) Cc1ccc(C)c(OCCCC(C)(C)C(=O)O)c1 [Gemfibrozil, gemfibrozil]
195

Below: the item to evaluate.
Given the entry CC(C)(Oc1ccc(C(=O)c2ccc(Cl)cc2)cc1)C(=O)O [Fenofibric acid, fenofibric acid] , what IC50 was observed with glucuronidation of simvastatin acid (UDPGA-dependent)?
283

----------
Assay: Pharmacokinetics after oral simvastatin in dogs pretreated with vehicle, gemfibrozil or fenofibrate
Details: dog, in vivo, po, 75 mg/kg, AUC 12 hr of gemfibrozil, gemfibrozil 75 mg/kg bid for 5 days
outcome-measure: AUC(0-t)

Returns the measured AUC(0-t) for the input compound. Input: Cc1ccc(C)c(OCCCC(C)(C)C(=O)O)c1
1440 µM·h

----------
Test: Pharmacokinetics after oral simvastatin in dogs pretreated with vehicle, gemfibrozil or fenofibrate
Details: dog, in vivo, po, 75 mg/kg, Cmax of gemfibrozil, gemfibrozil treated (75 mg/kg bid for 5 days)
outcome-measure: Cmax (µM)
Answers are plain numbers, in µM.

Returns the measured Cmax for the input molecule. Input: Cc1ccc(C)c(OCCCC(C)(C)C(=O)O)c1 [Gemfibrozil, gemfibrozil]
446

----------
Test system: oxidative metabolism of AVA (NADPH-dependent)
Experiment: in vitro
Settings: human, pH 7.4
outcome-measure: inhibition at 1 µM

Returns the measured inhibition at 1 µM for the input compound. Input: CC(=O)N1CCN(c2ccc(OCC3COC(Cn4ccnc4)(c4ccc(Cl)cc4Cl)O3)cc2)CC1 (stereo not shown) [Ketoconazole, ketoconazole]
> 90%

----------
Tested on: CYP3A-mediated oxidation of SVA
Assay: in vitro
Conditions: human, pH 7.4
outcome-measure: IC50

Returns the measured IC50 for the input molecule. Input: Cc1ccc(C)c(OCCCC(C)(C)C(=O)O)c1
> 800 µM

----------
System: oxidation of CVA to hydroxylated metabolite M1
Assay: in vitro
Settings: human, pH 7.4
outcome-measure: pIC50
One number for each entry, as −log10 of the molar value.

Returns the measured pIC50 for the input molecule. Input: Cc1ccc(C)c(OCCCC(C)(C)C(=O)O)c1
4.06

----------
Test system: oxidative metabolism of AVA (NADPH-dependent)
Experiment: in vitro
Conditions: human, pH 7.4
outcome-measure: IC50

Returns the measured IC50 for the input compound. Input: Cc1ccc(C)c(OCCCC(C)(C)C(=O)O)c1
> 750 µM

----------
Tested on: glucuronidation of RVA (UDPGA-dependent)
Test: in vitro
Details: human, liver microsomes, pH 7, probe RVA (10-20 μM), IC50, RVA Glucuronidation, statin 10-20 μM, UDPGA
outcome-measure: IC50

Returns the measured IC50 for the input compound. Input: Cc1ccc(C)c(OCCCC(C)(C)C(=O)O)c1
~400 µM

----------
System: human liver microsomes
Test: in vitro
Conditions: read-out: IC50, AVA Glucuronidation, statin 10-20 μM, UDPGA
outcome-measure: IC50 (µM)
One number for each entry, in µM.

Returns the measured IC50 for the input compound. Input: Cc1ccc(C)c(OCCCC(C)(C)C(=O)O)c1
316

----------
Test system: glucuronidation of SVA (UDPGA-dependent)
Test: in vitro
Conditions: human, liver microsomes, pH 7, probe SVA (10-20 μM), IC50, SVA Glucuronidation, statin 10-20 μM, UDPGA
outcome-measure: pIC50
Give bare numbers, as −log10 of the molar value.

Given the entry Cc1ccc(C)c(OCCCC(C)(C)C(=O)O)c1 , what pIC50 was observed with glucuronidation of SVA (UDPGA-dependent)?
3.45
